Tested on: NIH3T3
Procedure summary: Cytotoxicity against mouse NIH/3T3 cells after 24 hrs by MTT assay
Format: cell-based
Setup conditions: NIH3T3, 24 h
Assay metric: pIC50
Hey, just a heads up that pIC50 is the negative log base 10 of the concentration in molar.

Incoming: Query (molecule): `CC[C@@H](C(C)C)[C@H](O)[C@@H](O)[C@@H](C)[C@H]1CC[C@H]2[C@@H]3CNC(=O)[C@H]4C[C@H](O)[C@H](O)C[C@]4(C)[C@H]3CC[C@]12C` ; field requested: pIC50
Outgoing: 4.90

----------
System: NIH3T3
Procedure summary: Cytotoxicity against mouse NIH/3T3 cells at 0.3 to 30 uM after 24 hrs by MTT assay
Assay type: cell-based
Setup conditions: nih3t3, 24 h

[
  {
    "Substance smiles": "CC[C@@H](C(C)C)[C@H](O)[C@@H](O)[C@@H](C)[C@H]1CC[C@H]2[C@@H]3CC(=O)[C@H]4C[C@H](F)CC[C@]4(C)[C@H]3CC[C@]12C",
    "Activity": "Toxic"
  },
  {
    "Substance smiles": "CC[C@@H](C(C)C)[C@H](O)[C@@H](O)[C@@H](C)[C@H]1CC[C@H]2[C@@H]3CC(=O)[C@H]4C[C@H](O)[C@H](O)C[C@]4(C)[C@H]3CC[C@]12C",
    "Activity": "Non-toxic"
  },
  {
    "Substance smiles": "CC[C@H](C(C)C)[C@H](O)[C@@H](O)[C@@H](C)[C@H]1CC[C@H]2[C@@H]3COC(=O)[C@H]4C[C@H](F)CC[C@]4(C)[C@H]3CC[C@]12C",
    "Activity": "Toxic"
  },
  {
    "Substance smiles": "CC[C@@H](C(C)C)[C@H](O)[C@@H](O)[C@@H](C)[C@H]1CC[C@H]2[C@@H]3COC(=O)[C@H]4C[C@H](O)[C@H](O)C[C@]4(C)[C@H]3CC[C@]12C",
    "Activity": "Non-toxic"
  }
]
